target: NAMPT enzyme (Homo sapiens (Human), UniProt P43490); assay: Enzyme Assay and NMN Detection (NAMPT reaction, fluorescence detection of NMN); type: biochemical; settings: Table B-2; NAMPT activation, NMN formation
Sequence (P43490 whole entry, species assumed): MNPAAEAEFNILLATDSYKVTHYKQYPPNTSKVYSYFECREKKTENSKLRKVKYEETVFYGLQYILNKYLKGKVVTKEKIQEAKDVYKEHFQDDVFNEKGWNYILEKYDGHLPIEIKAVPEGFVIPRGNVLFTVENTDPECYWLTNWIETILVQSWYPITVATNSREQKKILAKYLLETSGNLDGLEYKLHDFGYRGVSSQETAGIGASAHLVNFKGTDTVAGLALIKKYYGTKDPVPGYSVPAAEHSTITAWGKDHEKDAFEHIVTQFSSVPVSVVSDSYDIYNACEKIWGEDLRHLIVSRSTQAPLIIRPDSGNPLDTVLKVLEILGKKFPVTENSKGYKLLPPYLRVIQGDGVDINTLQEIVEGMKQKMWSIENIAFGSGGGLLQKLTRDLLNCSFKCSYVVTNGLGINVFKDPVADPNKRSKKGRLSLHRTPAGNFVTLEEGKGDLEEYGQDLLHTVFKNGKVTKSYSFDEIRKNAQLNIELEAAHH
pEC50: −log10 of the molar value.
quantityKind: pEC50

Use these answered entries as a reference point.
O=C(NCc1ccncc1)Nc1ccc(S(=O)(=O)Nc2cccc(Cl)c2)cc1
5.70 to 7.00
O=C(NCc1ccncc1)Nc1ccc(S(=O)(=O)NC2CCCc3ccccc32)cc1 (centres unmarked)
> 7.00
COc1ccc(CNS(=O)(=O)c2ccc(NC(=O)NCc3ccncc3)cc2)cc1
5.70 to 7.00

Shift focus to the following entry.
QUERY: Please indicate recorded pEC50 of COc1ccccc1CNS(=O)(=O)c1ccc(NC(=O)NCc2ccncc2)cc1 measured with NAMPT enzyme (Homo sapiens (Human), UniProt P43490).
RESULT: 5.70 to 7.00

###

molecular target: UniProt:P43490; assay: Enzyme Assay and NMN Detection (NAMPT reaction, fluorescence detection of NMN); type: biochemical; conditions: Table B-4; NAMPT activation, NMN formation
Listed below: EC50 values for each entry.

Examples with answers:
O=C(NCc1cn[nH]c1)Nc1ccc(S(=O)(=O)c2ccccc2OC(F)(F)F)cc1
< 100 nM
O=C(NCc1cn[nH]c1)Nc1ccc(S(=O)(=O)c2ccc(C(F)(F)F)cc2)cc1
100 to 2000 nM
Cc1cccc2c(-c3ccc(NC(=O)NCc4cn[nH]c4)cc3)nn(C)c12
2000 to 5000 nM

QUERY: Supply measured EC50 of Cc1cccc2c1c(-c1ccc(NC(=O)NCc3cn[nH]c3)cc1)nn2C in your reply.
RESULT: 100 to 2000 nM

QUERY: Quote EC50 reported for O=C(NCc1cn[nH]c1)Nc1ccc(NS(=O)(=O)Cc2ccc(Cl)c(Cl)c2)cc1 please.
RESULT: < 100 nM

QUERY: Fill in reported EC50 for this entry: Cc1ccc(CNS(=O)(=O)c2ccc(NC(=O)NCc3cn[nH]c3)cc2)cc1
RESULT: 100 to 2000 nM

QUERY: Indicate its recorded EC50; the molecule in question is Cc1ccc2c(c1)c(-c1ccc(NC(=O)NCc3cn[nH]c3)cc1)nn2C
RESULT: 100 to 2000 nM

QUERY: Report measured EC50; entry is O=C(NCc1cn[nH]c1)Nc1ccc(S(=O)(=O)c2ccccc2-c2ccccc2F)cc1
RESULT: < 100 nM

QUERY: // Input: O=C(NCc1cn[nH]c1)Nc1ccc(S(=O)(=O)c2ccc(Cl)cn2)cc1 . Output its EC50 only.
RESULT: 100 to 2000 nM

QUERY: Please list EC50 recorded for the molecule O=C(NCc1cn[nH]c1)Nc1ccc(S(=O)(=O)c2ccccc2-c2ccncc2)cc1
RESULT: 100 to 2000 nM

QUERY: Tell us which EC50 value is on record for O=C(NCc1cn[nH]c1)Nc1ccc(Nc2nc(-c3ccc(Cl)cc3)cs2)cc1
RESULT: 100 to 2000 nM

QUERY: Report EC50 for O=C(NCc1cn[nH]c1)Nc1ccc(S(=O)(=O)c2cccnc2)cc1
RESULT: 100 to 2000 nM

QUERY: Supply reported EC50 belonging to this molecule: Cn1nc(-c2ccc(NC(=O)NCc3cn[nH]c3)cc2)c2ncccc21
RESULT: 100 to 2000 nM

QUERY: Indicate the recorded EC50 value for this molecule: O=C(NCc1cn[nH]c1)Nc1ccc(-c2ncc(Cc3ccccc3)s2)cc1
RESULT: 2000 to 5000 nM

QUERY: Answer with the recorded EC50 for the molecule listed here: Cc1cccc(S(=O)(=O)c2ccc(NC(=O)NCc3cn[nH]c3)cc2)c1
RESULT: 100 to 2000 nM

QUERY: Provide only the value of recorded EC50 for Cc1ccc(-c2csc(Nc3ccc(NC(=O)NCc4cn[nH]c4)cc3)n2)cc1
RESULT: 2000 to 5000 nM

QUERY: # return recorded EC50 for entry O=C(NCc1cn[nH]c1)Nc1ccc(S(=O)(=O)c2ccccc2-c2cccc(Cl)c2)cc1
RESULT: 100 to 2000 nM

QUERY: Return value of EC50 for input Cn1nc(-c2ccc(NC(=O)NCc3cn[nH]c3)cc2)c2ccccc21 , no commentary.
RESULT: 100 to 2000 nM

QUERY: Supply reported EC50 belonging to this molecule: O=C(NCc1cn[nH]c1)Nc1ccc(S(=O)(=O)c2cnccn2)cc1
RESULT: 100 to 2000 nM

QUERY: Please supply the value of reported EC50 for the item N#Cc1ccc(S(=O)(=O)c2ccc(NC(=O)NCc3cn[nH]c3)cc2)cc1
RESULT: 100 to 2000 nM
